This collection of values is drawn from ChEMBL document CHEMBL1153184.

Items are presented alongside their recorded pKi.
Assay: Displacement of [3H]NTI from guinea pig forebrain delta opioid receptor
Design: species or system Cavia porcellus
// returns pKi (minus log10 of molar concentration), number only

Example entries begin here.
# compound, pKi
measured = [
    ("CN(C(=O)/C=C/c1ccco1)[C@@H]1CC[C@@]2(O)[C@H]3Cc4ccc(O)c5c4[C@@]2(CCN3CC2CC2)[C@H]1O5", 7.02),
    ("O=C(Nc1ccccc1)[C@@H]1O[C@@]23CC[C@@]1(O)[C@@H]1Oc4c(O)ccc5c4[C@@]12CCN(CC1CC1)[C@@H]3C5", 8.49),
    ("O=C(Nc1ccccc1)[C@H]1O[C@@]23CC[C@]1(O)[C@@H]1Oc4c(O)ccc5c4[C@@]12CCN(CC1CC1)[C@@H]3C5", 8.56),
]

Query compound follows.
Problem: # get_value(readout='pKi', item= O=C1CC[C@@]2(O)[C@H]3Cc4ccc(O)c5c4[C@@]2(CCN3CC2CC2)[C@H]1O5 [NALTREXONE] )
Solution: 7.68

---

System: Kappa-type opioid receptor (Cavia porcellus) | Read-out: pKi
Sequence (P41144 whole entry): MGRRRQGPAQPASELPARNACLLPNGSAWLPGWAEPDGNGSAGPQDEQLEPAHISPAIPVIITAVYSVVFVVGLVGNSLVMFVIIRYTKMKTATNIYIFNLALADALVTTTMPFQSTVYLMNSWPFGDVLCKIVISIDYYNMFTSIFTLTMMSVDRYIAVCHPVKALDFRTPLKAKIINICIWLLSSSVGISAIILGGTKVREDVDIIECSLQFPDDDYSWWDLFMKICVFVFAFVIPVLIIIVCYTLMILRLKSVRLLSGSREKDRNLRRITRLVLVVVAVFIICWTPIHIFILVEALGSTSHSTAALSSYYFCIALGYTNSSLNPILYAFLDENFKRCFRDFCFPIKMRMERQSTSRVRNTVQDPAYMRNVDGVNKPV
Would you please state pKi, meaning minus log10 of the concentration in mol/L, as a bare number?

Consider the following illustrative entries.
# smiles-entry, measured-metric, quantitative-result
records = [
    ("O=C(Nc1ccccc1)[C@H]1O[C@@]23CC[C@]1(O)[C@@H]1Oc4c(O)ccc5c4[C@@]12CCN(CC1CC1)[C@@H]3C5", "pKi", 9.95),
    ("CN(C(=O)/C=C/c1ccco1)[C@@H]1CC[C@@]2(O)[C@H]3Cc4ccc(O)c5c4[C@@]2(CCN3CC2CC2)[C@H]1O5", "pKi", 9.65),
]

Problem: Which pKi is reported for this compound? `O=C(Nc1ccccc1)[C@@H]1O[C@@]23CC[C@@]1(O)[C@@H]1Oc4c(O)ccc5c4[C@@]12CCN(CC1CC1)[C@@H]3C5`
Solution: 9.82
